pIC50: −log10 of the molar value.
UniProt:P48736 data, read-out pIC50
Sequence (P48736 whole entry, looked up): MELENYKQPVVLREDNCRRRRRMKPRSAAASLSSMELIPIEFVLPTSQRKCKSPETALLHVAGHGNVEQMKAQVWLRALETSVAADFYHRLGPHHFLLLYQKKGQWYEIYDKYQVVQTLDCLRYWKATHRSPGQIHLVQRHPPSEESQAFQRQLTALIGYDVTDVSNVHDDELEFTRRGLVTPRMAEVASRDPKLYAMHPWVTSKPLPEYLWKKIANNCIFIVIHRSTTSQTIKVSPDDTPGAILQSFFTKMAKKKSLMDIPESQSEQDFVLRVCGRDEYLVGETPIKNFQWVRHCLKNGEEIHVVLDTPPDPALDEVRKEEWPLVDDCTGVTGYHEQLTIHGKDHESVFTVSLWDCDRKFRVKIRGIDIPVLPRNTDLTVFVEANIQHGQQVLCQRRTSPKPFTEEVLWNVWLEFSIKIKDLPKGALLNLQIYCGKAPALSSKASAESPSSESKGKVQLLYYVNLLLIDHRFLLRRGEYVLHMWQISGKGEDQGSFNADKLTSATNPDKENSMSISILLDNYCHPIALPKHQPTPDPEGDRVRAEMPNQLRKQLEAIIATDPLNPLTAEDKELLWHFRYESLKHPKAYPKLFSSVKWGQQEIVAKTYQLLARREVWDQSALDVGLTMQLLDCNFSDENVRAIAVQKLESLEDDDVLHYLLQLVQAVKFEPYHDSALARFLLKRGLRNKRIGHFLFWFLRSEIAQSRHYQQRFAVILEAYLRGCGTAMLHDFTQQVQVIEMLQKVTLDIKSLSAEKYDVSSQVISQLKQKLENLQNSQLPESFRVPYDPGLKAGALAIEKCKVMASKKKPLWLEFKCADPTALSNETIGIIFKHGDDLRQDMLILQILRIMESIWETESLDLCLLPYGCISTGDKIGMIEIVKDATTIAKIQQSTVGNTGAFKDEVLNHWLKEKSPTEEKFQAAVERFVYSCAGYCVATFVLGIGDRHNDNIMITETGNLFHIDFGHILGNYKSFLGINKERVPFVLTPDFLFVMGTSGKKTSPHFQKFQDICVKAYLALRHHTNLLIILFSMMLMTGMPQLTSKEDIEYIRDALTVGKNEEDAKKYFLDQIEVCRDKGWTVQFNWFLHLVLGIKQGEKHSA

# compound, pIC50
rows = [
    ("CCC(Nc1nc(N)ncc1-c1cncc(S(=O)(=O)Nc2ccccc2F)c1)c1nc2cccc(F)c2c(=O)n1-c1ccccc1 (stereo not drawn)", "7.00 to 7.70"),
    ("CCC(Nc1nc(N)ncc1-c1cncc(S(=O)(=O)NC(C)(C)C)c1)c1nc2cccc(C)c2c(=O)n1-c1ccccc1 (stereo not drawn)", "7.00 to 7.70"),
    ("CCC(Nc1nc(N)nc(C)c1-c1cncc(S(N)(=O)=O)c1)c1nc2cccc(F)c2c(=O)n1-c1ccccc1 (stereo not drawn)", "6.00 to 7.00"),
]
